Please respond with reported protein stability index for every item in the list.
B1: TRIM55 (parent)
chain: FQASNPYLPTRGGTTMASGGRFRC

# Variants of: B1
# assay_remarks: protein stability index of a GFP-peptide fusion (GPS, HEK-293T) (PSI 1-6); higher = more stable;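 also: lentivirally expressed fusions sorted by FACS into six bins by GFP to DsRed ratio, PSI derived from sequencing read proportions per bin multiplied by bin number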
# reported_conditions: c terminus: a fixed tail appended
Give bare numbers.

Worked examples, 4 variants total:
Prompt: Fill blank: measured protein stability index of the variant FQSSNPYLPTRGGTTMASGGRFRC [A3S] is ____.
Response: 2.27

Prompt: Same lookup for FQASLPYLPTRGGTTMASGGRFRC [N5L] , please.
Response: 2.04

Prompt: Same thing, different variant: FQASAPYLPTRGGTTMASGGRFRC [N5A]
Response: 2.65

Prompt: Ok, now FQASNPYLPTRGGTTMASAGRFRC [G19A]
Response: 1.7

Quick batch: protein stability index for everything below.
1. SQASNPYLPTRGGTTMASGGRFRC [F1S]
2. FQASDPYLPTRGGTTMASGGRFRC [N5D]
3. FQASTPYLPTRGGTTMASGGRFRC [N5T]
4. FQASNPYLPTRGGTTMASGGKFRC [R21K]
5. FQASNPYLPTRGGTTMASGGRFHC [R23H]
6. FFASNPYLPTRGGTTMASGGRFRC [Q2F]
7. FQDSNPYLPTRGGTTMASGGRFRC [A3D]

Response:
1. 3.52
2. 2.81
3. 2
4. 3.08
5. 1.56
6. 2.03
7. 2.71

Where do these numbers come from? They come from the supplement of paper PMC10567573.
